# TARGET_ENTITY: T1, recombinant human A33 antigen (human, UniProt Q99795 22-233, limits assumed)
# T1 construct: also called human antigen A33; immobilized recombinant human A33
# T1 sequence (looked up): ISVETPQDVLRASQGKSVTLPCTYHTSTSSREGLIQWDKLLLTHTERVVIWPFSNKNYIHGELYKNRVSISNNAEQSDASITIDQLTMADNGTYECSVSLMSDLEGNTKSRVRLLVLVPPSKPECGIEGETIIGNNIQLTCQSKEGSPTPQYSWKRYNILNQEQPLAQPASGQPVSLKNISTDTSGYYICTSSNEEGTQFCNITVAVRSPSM
# PROTOCOL_DETAILS: SPR (Biacore), recombinant human A33 immobilized on CM5 chip; Kd calculated from koff/kon
EXPERIMENTAL_ENDPOINT: pKd
# pKd is unitless: minus log10 of the molar concentration; print number only

(Q) State, in one line, measured pKd of humanized Fab F (human VLF and human VHF) (Fab, V domains shown) VH: EVQVMESGGGLVKPGGSLRLSCAASGIGFSHYGISWVRQAPGKGLEWVSYIYPNYGSVDYASSVNGRFTISLDNAQNSLYLQMNSLRAEDTAVYYCARDRGYYSGSRGTRLDLWGQGTLVTVSS VL: ELQMTQSPSSLSASVGDRVTITCLASEFLFNGVSWYQQKPGKAPKFLIYGASNLESGVPSRFSGSGSGTDFTLTISSLQPEDVATYYCLGGYSGSSGLTFGGGTKVEIK
(A) 8.46

Reference for the values: patent US6346249
